B1: glmS ribozyme (parent)
chain: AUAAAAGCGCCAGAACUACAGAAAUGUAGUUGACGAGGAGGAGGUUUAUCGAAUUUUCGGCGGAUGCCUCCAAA

- Variants of: B1
- experiment description: self-cleavage kobs at 40 uM GlcN6P; higher = faster cleavage; RNA array
- particulars: with glucosamine-6-phosphate
Variants at the floor of the assay were thinned out.
experimental readout: self-cleavage kobs at 40 uM GlcN6P

// solved cases for self-cleavage kobs at 40 uM GlcN6P follow
mutation notation | self-cleavage kobs at 40 uM GlcN6P
A52G G60A U65G C71U | < 1e-05 s⁻¹
G35U G60U | < 1e-05 s⁻¹
A14G C16U G41U | 0.000207 s⁻¹

Quick check: self-cleavage kobs at 40 uM GlcN6P of U2C A33G ?
< 1e-05 s⁻¹

// same read-out, input: A6G G51U U65A
< 1e-05 s⁻¹

What do you have for A14U U54C C67U ?
5.21e-05 s⁻¹

Also, C11A C16A U47C C61U please.
< 1e-05 s⁻¹

Another variant to check: U30A A39U G51A A64G
< 1e-05 s⁻¹
